Measured z-score by item
experiment: Components of the Cytosolic LPS Sensing Pathway: Gene Identification via Genome-wide siRNA Screen; conditions: RAW264.7 macrophages, IL-1a HTRF, actives lie on both sides, screened at 100 nM (by protocol), cells primed 5 h with Pam3CSK4 first;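 also: robust z of the log signal after scaling to non-targeting control siRNA wells of the plate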
About 3,700 (7%) of roughly 53,000 sequences were called active. Only a selection was taken, and actives are over-represented in it overall.
Form: value (number only, do not type unit).

See these solved cases before continuing.
z-score reported for this sequence GCACAUUGUCUAGUAGUAATT against Zfp280d : -0.622

z-score reported for this sequence CCCGUUCGUGCAUGAGUUATT against Lpcat4 : 0.532

z-score reported for this sequence GCCCUACUAAGUCAAUUAATT against 1700055D18Rik : 0.248

z-score reported for this sequence GGACCCAGAGAAGAUCAAATT against Etfrf1 : 0.514

Further cases:
z-score reported for this sequence GGAUAAAGUUUAAGGAUGGTT against Vmn1r40 : -0.43

z-score reported for this sequence GCGUCAAAAUUAUCCGAAATT against Trnau1ap : 0.124

z-score reported for this sequence GGGCACCUAUUCAGAUACCTT against Map2 : 0.685

z-score reported for this sequence GCUUACUAAUGCGGAUUACTT against 5330438D12Rik : -2.41

z-score reported for this sequence CCACUACAAUGUAGCGACGTT against C1qtnf9 : -2.24

z-score reported for this sequence GAUGGUCAUUGAUGUCCUUTT against Rps24 : -0.694

z-score reported for this sequence GGGUUUCUUGUUUCUUAGATT against Aldh6a1 : -0.00669

z-score reported for this sequence GGACUAGUCCUAAGAAGAGTT against Rbmxl2 : -1.27

z-score reported for this sequence GGCUUUGUGGACUUAAUUATT against Cyb5r2 : -1

z-score reported for this sequence GGAUUAUGGUCUCAUUGUCTT against Exd2 : 0.0549

z-score reported for this sequence GCCCAAGCAGUUCAUUCAUTT against Epc2 : 0.665

z-score reported for this sequence GUGCAACGUGAGCAAUACGTT against Selenbp2 : -0.417

z-score reported for this sequence GGCCAGGAAAGAUACAGGATT against Rab3c : 0.486

---

Measured z-score by item
test: Components of the Cytosolic LPS Sensing Pathway: Gene Identification via Genome-wide siRNA Screen; details: RAW264.7 macrophages, IL-1a HTRF, actives lie on both sides, screened at 100 nM (by protocol), cells primed 5 h with Pam3CSK4 first;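 also: robust z of the log signal after scaling to non-targeting control siRNA wells of the plate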
In all, about 53,000 sequences went through this assay and about 3,700 (7%) were called active. This is one part of a sample in which actives are shown more often than they occur.
Form: value (number only, do not type unit).

z-score reported for this sequence GCAGGAAUUCUUGAAUUAUTT against Ly75 : 2.66

Further cases:
z-score reported for this sequence GCCCUUAAUUGAACAAAUATT against Otud7b : 0.0529

z-score reported for this sequence GGUGAUUCAACUCACUUGUTT against Olfr1353 : -1.33

z-score reported for this sequence GGAUUUCUACAGGGUGUAUTT against Trim8 : -1.19

---

Measured z-score by item
assay: Components of the Cytosolic LPS Sensing Pathway: Gene Identification via Genome-wide siRNA Screen; settings: RAW264.7 macrophages, IL-1a HTRF, actives lie on both sides, screened at 100 nM (by protocol), cells primed 5 h with Pam3CSK4 first;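 also: robust z of the log signal after scaling to non-targeting control siRNA wells of the plate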
The campaign covered roughly 53,000 sequences. About 3,700 (7%) were called active. Shown is part of a subset that was picked to be rich in actives.
Form: value (number only, do not type unit).

z-score reported for this sequence CCUCUCUUUAACAGGUCACTT against 1700034H15Rik : 1.35

z-score reported for this sequence CCCACAUAAAUAAGUUGGUTT against Olfr996 : -1.02

z-score reported for this sequence GGCUUUAAUGAAAUUAUGGTT against Asap2 : 1.4

z-score reported for this sequence GCUGAAGGGACUCUAACCATT against Ihh : 0.715

z-score reported for this sequence CCACAGAAUAAGACAAUAUTT against Fbxo34 : -3.03

z-score reported for this sequence GGUGUUUGAGUCAACAGACTT against Oard1 : -2.1

z-score reported for this sequence GGAUAGGAAGAAAAUGAAGTT against Slfn2 : -2.83
